Target: SCD-1 (Homo sapiens)
Construct: 50 μg of protein from a HepG2 cell P2 pellet; endogenous in cells; host or cells: HepG2 cells (P2 pellet)
Sequence (O00767 1-359): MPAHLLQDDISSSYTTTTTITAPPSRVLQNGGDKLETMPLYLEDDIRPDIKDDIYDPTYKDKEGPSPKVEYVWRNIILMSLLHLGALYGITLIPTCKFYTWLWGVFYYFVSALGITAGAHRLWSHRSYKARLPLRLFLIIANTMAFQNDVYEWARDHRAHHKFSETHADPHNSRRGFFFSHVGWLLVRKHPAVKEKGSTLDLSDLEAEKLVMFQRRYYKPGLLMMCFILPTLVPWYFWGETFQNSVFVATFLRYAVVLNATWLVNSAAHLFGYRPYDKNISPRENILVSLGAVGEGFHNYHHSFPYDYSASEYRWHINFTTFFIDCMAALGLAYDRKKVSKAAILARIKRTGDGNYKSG
Assay: Stearoyl-CoA desaturase assay (HepG2 cell P2 pellet)
Type: biochemical
Details: Table 2, compounds of formula (Ib); protein from HepG2 cell P2 pellet, 20 μM stearoyl-CoA, 15 min at 25° C.; read-out: Ave IC50
measured-attribute: IC50

Examples with answers:
| chemical-structure | IC50 |
| --- | --- |
| CC(C)(C)OC(=O)CCNC(=O)c1cnc(N2CCC3(CC2)CCN(Cc2cccc(C(F)(F)F)c2)c2ccccc2O3)s1 | 50 to 499 nM |
| CC(C)(C)c1ccc(CN2CCC3(CCN(c4ncc(C(=O)NCC5OCCO5)s4)CC3)Oc3c(F)cccc32)cc1 | 0.5 to 49 nM |

// moving on: another record for IC50
// returns reported IC50 for input COCCNC(=O)c1cnc(N2CCC3(CC2)CCN(Cc2ccc(C(C)(C)C)cc2)c2cccc(F)c2O3)s1
50 to 499 nM
